system: Rhyncosporium secalis; assay: Barley Scald (RHYNSE) disease control; type: in vivo; details: Hordeum vulgare, 24 h, 1 Day Protectant, read-out: Disease Control RHYNSE 1 DP
readout: pest or weed control at 100 ppm

Examples from the recorded data:
1) COc1ccnc(C(=O)N[C@H]2CCC[C@H](Cc3ccccc3)[C@@H](OCC3CC3)[C@H](C)OC2=O)c1OCOC(=O)C(C)C : 80 to 100%
2) CCOCC(=O)OCOc1c(OC)ccnc1C(=O)N[C@H]1CCC[C@H](CC2CCCCC2)[C@@H](OCC(C)C)[C@H](C)OC1=O : 80 to 100%
3) COc1ccnc(C(=O)N[C@H]2CCC[C@H](CCF)[C@@H](OCC(C)C)[C@H](C)OC2=O)c1OCOC(C)=O : 0 to 80%
4) CCOCC(=O)OCOc1c(OC)ccnc1C(=O)N[C@H]1CCC[C@H](Cc2ccccc2)[C@@H](OCC(C)C)[C@H](C)OC1=O : 80 to 100%
5) COc1ccnc(C(=O)N[C@H]2CCC[C@H](Cc3ccc(F)cc3)[C@@H](OCC3CC3)[C@H](C)OC2=O)c1OC(C)=O : 80 to 100%

Let's switch to this compound now.
query: Identify the measured pest or weed control at 100 ppm of CCOCC(=O)OCOc1c(OC)ccnc1C(=O)N[C@H]1CCC[C@H](CCF)[C@@H](OCC(C)C)[C@H](C)OC1=O for Rhyncosporium secalis.
result: 0 to 80%

====

tested on: Phakopsora pachyrhizi; experiment: Asian Soybean Rust (PHAKPA) disease control; format: in vivo; settings: Phakopsora pachyrhizi, topical, 72 h, 3 Day Curative, read-out: Disease Control PHAKPA 3DC
Below, each of the compounds is paired with its reported pest or weed control at 25 ppm value.

Examples from the recorded data:
1. CC[C@H]1CCC[C@H](NC(=O)c2nccc(OC)c2OC(C)=O)C(=O)O[C@@H](C)[C@@H]1Oc1ccccc1 : 80 to 100%
2. COCC[C@H]1CCC[C@H](NC(=O)c2nccc(OC)c2OCOC(C)=O)C(=O)O[C@@H](C)[C@@H]1Oc1ccccc1 : 80 to 100%
3. C=CCO[C@@H]1[C@@H](Cc2ccc(F)cc2)CCC[C@H](NC(=O)c2nccc(OC)c2OCOC(=O)COCC)C(=O)O[C@H]1C : 0 to 80%
4. COc1ccnc(C(=O)N[C@H]2CCC[C@H](Cc3ccccc3)[C@@H](OCC(C)C)[C@H](C)OC2=O)c1OC(C)=O : 0 to 80%
5. COc1ccnc(C(=O)N[C@H]2CCC[C@H](Cc3ccccc3)[C@@H](OCC(C)C)[C@H](C)OC2=O)c1OCOC(C)=O : 0 to 80%

Let's switch to this compound now.
query: Which pest or weed control at 25 ppm reading was recorded for the compound CCOCC(=O)OCOc1c(OC)ccnc1C(=O)N[C@H]1CCC[C@H](CC)[C@@H](Oc2ccccc2)[C@H](C)OC1=O ?
result: 80 to 100%

====

system: Cercospora beticola; assay: Leaf Spot of Sugar Beets (CERCBE) disease control; format: in vivo; details: Cercospora beticola, topical, 24 h, 1 Day Protectant, sugar beet, read-out: Disease Control CERCBE 1 DP
Below, each of the compounds is paired with its reported pest or weed control at 100 ppm value.

query: Identify the measured pest or weed control at 100 ppm of COc1ccc(C[C@H]2CCC[C@H](NC(=O)c3nccc(OC)c3OCOC(C)=O)C(=O)O[C@@H](C)[C@@H]2OCC(C)C)cc1 for Cercospora beticola.
result: 80 to 100%

query: Identify the measured pest or weed control at 100 ppm of COc1ccnc(C(=O)N[C@H]2CCC[C@H](Cc3ccccc3)[C@@H](OCC3CC3)[C@H](C)OC2=O)c1OCOC(=O)C(C)C for Cercospora beticola.
result: 80 to 100%

query: Identify the measured pest or weed control at 100 ppm of CCO[C@@H]1[C@@H](Cc2ccccc2)CCC[C@H](NC(=O)c2nccc(OC)c2OC(C)=O)C(=O)O[C@H]1C for Cercospora beticola.
result: 80 to 100%

====

Below, each of the compounds is paired with its reported pest or weed control at 121.5 g/ha value.
tested on: Puccinia triticina; Synonym: Puccinia recondite f. Sp. Tritici; test: Wheat Brown Rust (PUCCRT) disease control; format: in vivo; conditions: Puccinia triticina, topical, 72 h, Wheat Brown Rust; 3 Day Curative; rate 121.5 g/H (low volume application); read-out: Disease control PUCCRT 3 DC

query: Which pest or weed control at 121.5 g/ha reading was recorded for the compound CCOCC(=O)OCOc1c(OC)ccnc1C(=O)N[C@H]1CCC[C@@H]2CCO[C@H]2[C@H](C)OC1=O [Compound F192] ?
result: 80 to 100%

query: Which pest or weed control at 121.5 g/ha reading was recorded for the compound CCOCC(=O)OCOc1c(OC)ccnc1C(=O)N[C@H]1CCC[C@H](Cc2ccc(C)cc2)[C@@H](OCCCC(F)(F)F)[C@H](C)OC1=O [Compound F190] ?
result: 0 to 80%

query: Which pest or weed control at 121.5 g/ha reading was recorded for the compound COCCC(=O)Oc1c(OC)ccnc1C(=O)N[C@H]1CCC[C@H](CC2CCCC2)[C@@H](OCC2CC2)[C@H](C)OC1=O [Compound F194] ?
result: 0 to 80%

query: Which pest or weed control at 121.5 g/ha reading was recorded for the compound COc1ccnc(C(=O)N[C@H]2CCC[C@H](CCOCC3CC3)[C@@H](OCC3CC3)[C@H](C)OC2=O)c1OC(=O)C1CC1 [Compound F196] ?
result: 80 to 100%

query: Which pest or weed control at 121.5 g/ha reading was recorded for the compound CCOCC(=O)OCOc1c(OC)ccnc1C(=O)N[C@H]1CCC[C@H](CCOCC2CC2)[C@@H](OCC2CC2)[C@H](C)OC1=O [Compound F191] ?
result: 80 to 100%

====

system: Uncinula necator; test: Grape Powdery Mildew (UNCINE) disease control; type: in vivo; details: Erysiphe necator, topical, 24 h, 1 Day Protectant, read-out: Disease Control UNCINE 1 DP
Below, each of the molecules is paired with its reported pest or weed control at 100 ppm value.

Examples from the recorded data:
1. COc1ccnc(C(=O)N[C@H]2CCC[C@H](Cc3ccccc3)[C@@H](OCC3CC3)[C@H](C)OC2=O)c1OCOC(C)=O : 0 to 80%
2. CCCO[C@@H]1[C@@H](CCC(C)C)CCC[C@H](NC(=O)c2nccc(OC)c2OC(C)=O)C(=O)O[C@H]1C : 80 to 100%

Let's switch to this molecule now.
query: Which pest or weed control at 100 ppm reading was recorded for the molecule COc1ccnc(C(=O)N[C@H]2CCC[C@H](Cc3ccc(F)cc3)[C@@H](OCC3CC3)[C@H](C)OC2=O)c1OC(C)=O ?
result: 0 to 80%

====

tested on: Erysiphe cichoracearum; assay: Powdery Mildew of Cucumber (ERYSCI) disease control; assay type: in vivo; details: Golovinomyces cichoracearum, topical, 24 h, 1 Day Protectant, read-out: Disease Control ERYSCI 1 DP
readout: pest or weed control at 100 ppm

1) COCC[C@H]1CCC[C@H](NC(=O)c2nccc(OC)c2OC(C)=O)C(=O)O[C@@H](C)[C@@H]1Oc1ccccc1 [Compound F78] : 0 to 80%
2) COc1ccnc(C(=O)N[C@H]2CCC[C@H](Cc3ccccc3)[C@@H](OCC(C)C)[C@H](C)OC2=O)c1OCOC(C)=O [Compound F106] : 80 to 100%
3) CCOCC(=O)OCOc1c(OC)ccnc1C(=O)N[C@H]1CCC[C@H](CCF)[C@@H](OCC(C)C)[C@H](C)OC1=O [Compound F181] : 0 to 80%
4) CC[C@H]1CCC[C@H](NC(=O)c2nccc(OC)c2OC(C)=O)C(=O)O[C@@H](C)[C@@H]1Oc1ccccc1 [Compound F81] : 0 to 80%
5) COc1ccnc(C(=O)N[C@H]2CCC[C@H](Cc3ccc(F)cc3)[C@@H](OCC3CC3)[C@H](C)OC2=O)c1OCOC(C)=O [Compound F96] : 80 to 100%

Let's switch to this compound now.
query: Which pest or weed control at 100 ppm reading was recorded for the compound CCOCC(=O)OCOc1c(OC)ccnc1C(=O)N[C@H]1CCC[C@H](CCOC)[C@@H](Oc2ccccc2)[C@H](C)OC1=O [Compound F183] ?
result: 0 to 80%

====

test system: Phakopsora pachyrhizi; test: Asian Soybean Rust (PHAKPA) disease control; assay type: in vivo; settings: Phakopsora pachyrhizi, topical, 72 h, 3 Day Curative, read-out: Disease Control PHAKPA 3DC
Below, each of the compounds is paired with its reported pest or weed control at 25 ppm value.

Examples from the recorded data:
1. CCCO[C@@H]1[C@@H](Cc2ccc(F)cc2)CCC[C@H](NC(=O)c2nccc(OC)c2OCOC(C)=O)C(=O)O[C@H]1C [Compound F101] : 0 to 80%
2. COc1ccnc(C(=O)N[C@H]2CCC[C@H](C)[C@@H](Oc3ccccc3)[C@H](C)OC2=O)c1OC(C)=O [Compound F76] : 80 to 100%

query: Which pest or weed control at 25 ppm reading was recorded for the compound CCOCC(=O)OCOc1c(OC)ccnc1C(=O)N[C@H]1CCC[C@H](Cc2ccccc2)[C@@H](OCC2CC2)[C@H](C)OC1=O [Compound F173] ?
result: 80 to 100%
